Test system: HCV replicon, genotype-1a variant with glutamine 30 changed to glutamate in the NS5A protein
PROTOCOL: microbe, parasite or virus in culture
Format: cell-based, HCV genotype 1a
MEASUREMENT_CONDITIONS: HCV replicon genotype 1a Q30E (Q→E) variant; test compound titrated with an NS5A-targeting compound (BMS-790052 fixed at 200 nM); ranking of synergist activity
EXPERIMENTAL_READOUT: Fold-Synergistic 1a (Q30E)

Some compounds with known Fold-Synergistic 1a (Q30E) results, for comparison:
{"COMPOUND": "CC(C)(C)[C@H](NC(=O)C1(n2cncn2)CC1)c1nc(-c2ccc(-c3ccc(-c4c[nH]c([C@@H](NC(=O)C5(n6cncn6)CC5)C(C)(C)C)n4)cc3)cc2)c[nH]1", "VALUE_REPORTED": ">100 fold"}
{"COMPOUND": "O=C(c1ccc2ccccc2n1)N1CCC[C@H]1c1ncc(-c2ccc(-c3ccc(-c4cnc([C@@H]5CCCN5C(=O)c5ccc6ccccc6n5)[nH]4)cc3)cc2)[nH]1", "VALUE_REPORTED": ">100 fold"}
{"COMPOUND": "CC1(C(=O)N[C@H](c2nc(-c3ccc(-c4ccc(-c5c[nH]c([C@@H](NC(=O)C6(C)CC7C=CC6C7)C(C)(C)C)n5)cc4)cc3)c[nH]2)C(C)(C)C)CC2C=CC1C2 (stereo partly shown)", "VALUE_REPORTED": ">100 fold"}
{"COMPOUND": "CC(C)CC(=O)N[C@@H](Cc1cccc2ccccc12)c1nc(-c2ccc(-c3ccc(-c4c[nH]c([C@H](Cc5cccc6ccccc56)NC(=O)CC(C)C)n4)cc3)cc2)c[nH]1", "VALUE_REPORTED": "<10 fold"}
{"COMPOUND": "CC(C)(C)[C@H](NC(=O)[C@@]1(C)CC(F)(F)CO1)c1nc(-c2ccc(-c3ccc(-c4c[nH]c([C@@H](NC(=O)[C@@]5(C)CC(F)(F)CO5)C(C)(C)C)n4)cc3)cc2)c[nH]1", "VALUE_REPORTED": ">100 fold"}
{"COMPOUND": "CC(C)[C@H](NC(=O)C(=O)N(C(C)C)C1CC1)c1nc(-c2ccc(-c3ccc(-c4c[nH]c([C@@H](NC(=O)C(=O)N(C(C)C)C5CC5)C(C)C)n4)cc3)cc2)c[nH]1", "VALUE_REPORTED": ">100 fold"}
{"COMPOUND": "Cc1ccoc1C(=O)N1CCC[C@H]1c1ncc(-c2ccc(-c3ccc(-c4cnc([C@@H]5CCCN5C(=O)c5occc5C)[nH]4)cc3)cc2)[nH]1", "VALUE_REPORTED": ">10 fold"}
{"COMPOUND": "O=C(Cc1ccc(-c2ccccc2)cc1)N1CCC[C@H]1c1ncc(-c2ccc(-c3ccc(-c4cnc([C@@H]5CCCN5C(=O)Cc5ccc(-c6ccccc6)cc5)[nH]4)cc3)cc2)[nH]1", "VALUE_REPORTED": "<10 fold"}
{"COMPOUND": "COC(=O)N[C@H](C(=O)NC1(c2nc(-c3ccc(-c4ccc(-c5c[nH]c(C6(NC(=O)[C@@H](NC(=O)OC)C(C)C)CCCCC6)n5)cc4)cc3)c[nH]2)CCCCC1)C(C)C", "VALUE_REPORTED": "<10 fold"}
{"COMPOUND": "CC(C)[C@H](NC(=O)[C@@]1(C)CCCCO1)c1nc(-c2ccc(-c3ccc(-c4c[nH]c([C@@H](NC(=O)[C@@]5(C)CCCCO5)C(C)C)n4)cc3)cc2)c[nH]1", "VALUE_REPORTED": ">100 fold"}

For each of the compounds below, note its Fold-Synergistic 1a (Q30E).
1. C[C@@H]1CCCCN1C(=O)C(=O)N[C@H](c1nc(-c2ccc(-c3ccc(-c4c[nH]c([C@@H](NC(=O)C(=O)N5CCCC[C@H]5C)C(C)(C)C)n4)cc3)cc2)c[nH]1)C(C)(C)C
2. CC(C)(C)[C@H](NC(=O)[C@H]1COC(=O)N1)c1nc(-c2ccc(-c3ccc(-c4c[nH]c([C@@H](NC(=O)[C@H]5COC(=O)N5)C(C)(C)C)n4)cc3)cc2)c[nH]1
3. COC(=O)N[C@H](C(=O)N[C@H](c1nc(-c2ccc(-c3ccc(-c4c[nH]c([C@@H](NC(=O)[C@@H](NC(=O)OC)C(C)C)C5CC5)n4)cc3)cc2)c[nH]1)C1CC1)C(C)C
4. CC(C)CC(=O)NC1(c2nc(-c3ccc(-c4ccc(-c5c[nH]c(C6(NC(=O)CC(C)C)CC=CC6)n5)cc4)cc3)c[nH]2)CC=CC1
5. CCC(CC)(NC(=O)OC(C)(C)C)C(=O)N[C@H](c1nc(-c2ccc(-c3ccc(-c4c[nH]c([C@@H](NC(=O)C(CC)(CC)NC(=O)OC(C)(C)C)C(C)(C)C)n4)cc3)cc2)c[nH]1)C(C)(C)C

Reply text:
1. >100 fold
2. >10 fold
3. >10 fold
4. <10 fold
5. >100 fold

Please give Fold-Synergistic 1a (Q30E) for each item listed below.
1. CC(C)(C)[C@H](NC(=O)[C@@]1(C)CCCCO1)c1nc(-c2ccc(-c3ccc(-c4c[nH]c([C@@H](NC(=O)[C@@]5(C)CCCCO5)C(C)(C)C)n4)cc3)cc2)c[nH]1
2. CC(C)(C)[C@H](NC(=O)[C@@]12CC[C@@](C)(C(=O)O1)C2(C)C)c1nc(-c2ccc(-c3ccc(-c4c[nH]c([C@@H](NC(=O)[C@@]56CC[C@@](C)(C(=O)O5)C6(C)C)C(C)(C)C)n4)cc3)cc2)c[nH]1

Reply text:
1. >100 fold
2. >100 fold

Answer for every listed entry: what is its Fold-Synergistic 1a (Q30E)? The entries follow.
1. CC(C)(C)OC(=O)N1CC2(CC2)C[C@H]1C(=O)N[C@H](c1nc(-c2ccc(-c3ccc(-c4c[nH]c([C@@H](NC(=O)[C@@H]5CC6(CC6)CN5C(=O)OC(C)(C)C)C(C)(C)C)n4)cc3)cc2)c[nH]1)C(C)(C)C
2. O=C(CC1CCCCC1)N1CCC[C@H]1c1ncc(-c2ccc(-c3ccc(-c4cnc([C@@H]5CCCN5C(=O)CC5CCCCC5)[nH]4)cc3)cc2)[nH]1

Reply text:
1: >100 fold; 2: >10 fold

----------
Tested on: HCV replicon, genotype-1a variant with glutamine 30 changed to glutamate in the NS5A protein
PROTOCOL: microbe, parasite or virus in culture
Type: cell-based, HCV genotype 1a
MEASUREMENT_CONDITIONS: HCV replicon genotype 1a Q30E (Q→E) variant; test compound titrated with an NS5A-targeting compound (BMS-790052 fixed at 200 nM); ranking of synergist activity
EXPERIMENTAL_READOUT: Fold-Synergistic 1a (Q30E)

Consider the reported Fold-Synergistic 1a (Q30E) for these compounds:
{"COMPOUND": "CC(C)(C)C(=O)N[C@H](c1nc(-c2ccc(-c3ccc(-c4c[nH]c([C@@H](NC(=O)C(C)(C)C)C5CCCC5)n4)cc3)cc2)c[nH]1)C1CCCC1 [Compound N-44]", "VALUE_REPORTED": ">100 fold"}
{"COMPOUND": "CC(C)[C@H](NC(=O)C1(N2CCC(F)(F)CC2)COC1)c1nc(-c2ccc(-c3ccc(-c4c[nH]c([C@@H](NC(=O)C5(N6CCC(F)(F)CC6)COC5)C(C)C)n4)cc3)cc2)c[nH]1 [Compound W-64]", "VALUE_REPORTED": ">100 fold"}
{"COMPOUND": "CC(C)(C)[C@H](NC(=O)CC1CCOC2(CC2)C1)c1nc(-c2ccc(-c3ccc(-c4c[nH]c([C@@H](NC(=O)CC5CCOC6(CC6)C5)C(C)(C)C)n4)cc3)cc2)c[nH]1 (stereo partly drawn) [Compound L-75]", "VALUE_REPORTED": ">100 fold"}

Provide reported Fold-Synergistic 1a (Q30E) for each item, in the same order as listed.
1. CC(C)C(N[S+]([O-])C(C)(C)C)c1ncc(-c2ccc(-c3ccc(-c4cnc([C@@H](N[S+]([O-])C(C)(C)C)C(C)C)[nH]4)cc3)cc2)[nH]1 (single isomer, unassigned) [Compound Y-61]
2. CC(=O)N1CCC[C@H]1c1ncc(-c2ccc(-c3ccc(-c4cnc([C@@H]5CCCN5C(C)=O)[nH]4)cc3)cc2)[nH]1 [Compound S-113]
3. O=C(CC1CCCC1)N1CCC[C@H]1c1ncc(-c2ccc(-c3ccc(-c4cnc([C@@H]5CCCN5C(=O)CC5CCCC5)[nH]4)cc3)cc2)[nH]1 [Compound S-165]
4. CC(C)N(C(=O)OC1(C(=O)N[C@H](c2nc(-c3ccc(-c4ccc(-c5c[nH]c([C@@H](NC(=O)C6(OC(=O)N(C(C)C)C(C)C)CC6)C6(C)CC6)n5)cc4)cc3)c[nH]2)C2(C)CC2)CC1)C(C)C [Compound L-39]
5. CC(C)(C)[C@H](NC(=O)C(C)(C)C1(O)CCCCC1)c1nc(-c2ccc(-c3ccc(-c4c[nH]c([C@@H](NC(=O)C(C)(C)C5(O)CCCCC5)C(C)(C)C)n4)cc3)cc2)c[nH]1 [Compound P-160]

Reply text:
<10 fold
<10 fold
>10 fold
>100 fold
>100 fold

All values here come from patent US9326973B2.
